Test system: Staphylococcus aureus
ASSAY EXPLANATION: Antibacterial activity against methicillin-resistant Staphylococcus aureus clinical isolate M16 by CLSI based micro-broth dilution method
Format: functional
ATTRIBUTE MEASURED: MIC (µg/mL)
Give bare numbers, in µg/mL.

Worked cases, answers included:
- COMPOUND: "C=CCc1cc(-c2ccc(OCCC[N+](C)(C)CC(=O)NCCCC)c(CC=C)c2)c2oc(=S)n(Cc3ccc(Cl)cc3Br)c2c1.[Br-]"
  ENDPOINT UNIT: "µg/mL"
  MIC: 128
- COMPOUND: "C=CCc1cc(-c2ccc(OCCC[N+](C)(C)CC(=O)NCCCC)c(CC=C)c2)c2oc(=S)n(Cc3ccc(Cl)c(F)c3)c2c1.[Br-]"
  ENDPOINT UNIT: "µg/mL"
  MIC: 8

# next compound below
Looking for the measured MIC of C=CCc1cc(-c2ccc(OCCC[N+](C)(C)CC(=O)NCCCC)c(CC=C)c2)c2oc(=S)n(Cc3ccc(F)c(Br)c3)c2c1.[Br-] , can you help? 8
